Biological target: MDM2 (Homo sapiens, UniProt Q00987)
Sequence (Q00987 whole entry): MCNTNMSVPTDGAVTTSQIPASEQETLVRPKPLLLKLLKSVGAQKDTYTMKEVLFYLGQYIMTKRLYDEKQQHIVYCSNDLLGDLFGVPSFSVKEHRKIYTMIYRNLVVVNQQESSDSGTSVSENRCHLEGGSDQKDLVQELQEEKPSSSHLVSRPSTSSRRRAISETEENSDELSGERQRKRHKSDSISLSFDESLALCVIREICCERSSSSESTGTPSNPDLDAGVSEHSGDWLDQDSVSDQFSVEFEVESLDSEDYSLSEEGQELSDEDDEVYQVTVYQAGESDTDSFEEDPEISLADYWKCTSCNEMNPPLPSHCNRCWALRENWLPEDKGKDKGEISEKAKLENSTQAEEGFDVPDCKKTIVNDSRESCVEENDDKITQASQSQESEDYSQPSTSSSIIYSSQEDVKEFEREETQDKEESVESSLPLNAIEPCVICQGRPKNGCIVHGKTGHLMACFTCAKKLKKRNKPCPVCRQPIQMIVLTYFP
Assay: MDM2 binding screen of Libraries 3 and 4: displacement of fluorescent probe F-M8 at 750 nM macrocycle
Conditions: Panel c, Library 4: best nine scaffolds and 15 additional carboxylic acids; displacement of fluorescent probe
Protocol: The cyclic peptide scaffolds required for Libraries 3 and 4 were synthesized as described for those used in Library 2. Due to the presence of many N-methylated amino acids which are more difficult to couple, 200 mM HOAt was applied together with HATU. The scaffolds were diluted to 2 mM in DMSO, and 15 nL were transferred using acoustic dispensing, followed by 15 nL DMSO containing carboxylic acids (40 mM, 20 equiv.), HBTU (40 mM) and DABCO (40 mM). […]
Below, each of the compounds is paired with its reported fraction of fluorescent probe displaced value.
Reply briefly: the number, and no unit.

CCOc1ccc(/C=C/C(=O)O)cc1 [Acid 117]: 0.028

Log: MDM2 (Homo sapiens, UniProt Q00987), compound O=C(/C=C/c1ccc(F)cc1)NC[C@@H]1NC(=O)[C@H]2CCCN(C2)C(=O)CCSSCCNC(=O)[C@H](Cc2c[nH]c3ccccc23)NC1=O [X-Nip-Dap-Trp + Acid 116] , fraction of fluorescent probe displaced = 0.443

Log: MDM2 (Homo sapiens, UniProt Q00987), compound O=C(O)/C=C/c1cccc(Cl)c1 [Acid 121] , fraction of fluorescent probe displaced = -0.00464

Log: MDM2 (Homo sapiens, UniProt Q00987), compound Cn1cc(C[C@@H]2NC(=O)[C@H](CNC(=O)/C=C/c3cccc(C(F)(F)F)c3)NC(=O)[C@H]3CCCN(C3)C(=O)CCSSCCNC2=O)c2ccccc21 [X-Nip-Dap-Me-Trp + Acid 122] , fraction of fluorescent probe displaced = 0.101

Log: MDM2 (Homo sapiens, UniProt Q00987), compound CCOc1ccc(/C=C/C(=O)NC[C@@H]2NC(=O)[C@@H]3CN(CCO3)C(=O)CCSSCCNC(=O)[C@H](Cc3c[nH]c4cc(Cl)ccc34)NC2=O)cc1 [X-Cop-Dap-Cl-Trp + Acid 117] , fraction of fluorescent probe displaced = 0.175

Log: MDM2 (Homo sapiens, UniProt Q00987), compound O=C(/C=C/c1ccc(F)cc1)NC[C@@H]1NC(=O)[C@H]2CCCN(C2)C(=O)CCSSCCNC(=O)[C@H](Cc2cccc3ccccc23)NC1=O [X-Nip-Dap-1-NaI + Acid 116] , fraction of fluorescent probe displaced = 0.052
